# study_system: wild-type mouse TMEM16A (Mus musculus)
# Construct: expressed in transfected cells; host or cells: HEK293T
# Sequence (Q8BHY3 whole entry): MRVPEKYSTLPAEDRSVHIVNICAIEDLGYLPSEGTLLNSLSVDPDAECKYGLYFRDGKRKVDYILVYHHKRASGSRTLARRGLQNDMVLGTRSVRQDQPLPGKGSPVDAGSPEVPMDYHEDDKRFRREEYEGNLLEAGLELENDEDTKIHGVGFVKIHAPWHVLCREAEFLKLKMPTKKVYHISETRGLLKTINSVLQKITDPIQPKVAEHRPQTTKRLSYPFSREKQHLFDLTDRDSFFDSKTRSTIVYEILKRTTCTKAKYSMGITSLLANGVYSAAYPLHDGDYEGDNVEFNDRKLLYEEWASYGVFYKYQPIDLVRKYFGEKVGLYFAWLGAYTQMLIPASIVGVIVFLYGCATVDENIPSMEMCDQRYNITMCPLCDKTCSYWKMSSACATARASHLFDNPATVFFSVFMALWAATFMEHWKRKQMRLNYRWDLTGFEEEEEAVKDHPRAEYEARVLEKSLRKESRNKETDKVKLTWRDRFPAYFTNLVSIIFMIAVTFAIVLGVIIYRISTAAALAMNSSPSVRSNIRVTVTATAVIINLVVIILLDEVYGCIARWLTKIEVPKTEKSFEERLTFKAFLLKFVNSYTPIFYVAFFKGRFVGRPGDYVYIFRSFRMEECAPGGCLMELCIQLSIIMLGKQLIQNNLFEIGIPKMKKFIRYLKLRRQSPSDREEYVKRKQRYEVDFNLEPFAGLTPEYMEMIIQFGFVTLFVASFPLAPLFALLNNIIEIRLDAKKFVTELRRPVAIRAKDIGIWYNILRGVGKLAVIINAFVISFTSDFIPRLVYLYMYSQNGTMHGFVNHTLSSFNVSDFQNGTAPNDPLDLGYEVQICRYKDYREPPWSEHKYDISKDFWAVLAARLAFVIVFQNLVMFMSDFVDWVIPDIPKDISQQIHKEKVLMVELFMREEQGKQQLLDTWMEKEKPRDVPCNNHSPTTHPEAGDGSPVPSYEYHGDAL
# assay_overview: Inside-out patch recording of 1PBC block, wild-type TMEM16A
# Type: cell-based
# assay_conditions: 20 mV; 2 µM Ca2+
attribute_measured: pIC50
Give bare numbers, as −log10 of the molar value.

Look up and report measured pIC50 (wild-type mouse TMEM16A (Mus musculus)) for the following compound: N#Cc1c(C(F)(F)F)cc(O)n2c1nc1ccccc12 5.47

====

# study_system: mouse TMEM16A mutant I636A (Mus musculus, UniProt Q8BHY3, I636A)
# Construct: expressed in transfected cells; host or cells: HEK293T
# Sequence (Q8BHY3 whole entry I636A): as the sequence (Q8BHY3 whole entry) above, with I636A counted along it
# assay_overview: Inside-out patch recording of 1PBC block, mutant I636A
# Assay type: cell-based
# assay_conditions: -20 mV; 15 µM Ca2+
attribute_measured: IC50 (µM)
One number for each entry, in µM.

Look up and report measured IC50 (mouse TMEM16A mutant I636A (Mus musculus, UniProt Q8BHY3, I636A)) for the following compound: N#Cc1c(C(F)(F)F)cc(O)n2c1nc1ccccc12 [1PBC] 8.22

Origin of values: paper PMC9120017
